tested target: human sodium channel Nav 1.7 (Homo sapiens (Human), UniProt Q15858)
Sequence (Q15858 whole entry): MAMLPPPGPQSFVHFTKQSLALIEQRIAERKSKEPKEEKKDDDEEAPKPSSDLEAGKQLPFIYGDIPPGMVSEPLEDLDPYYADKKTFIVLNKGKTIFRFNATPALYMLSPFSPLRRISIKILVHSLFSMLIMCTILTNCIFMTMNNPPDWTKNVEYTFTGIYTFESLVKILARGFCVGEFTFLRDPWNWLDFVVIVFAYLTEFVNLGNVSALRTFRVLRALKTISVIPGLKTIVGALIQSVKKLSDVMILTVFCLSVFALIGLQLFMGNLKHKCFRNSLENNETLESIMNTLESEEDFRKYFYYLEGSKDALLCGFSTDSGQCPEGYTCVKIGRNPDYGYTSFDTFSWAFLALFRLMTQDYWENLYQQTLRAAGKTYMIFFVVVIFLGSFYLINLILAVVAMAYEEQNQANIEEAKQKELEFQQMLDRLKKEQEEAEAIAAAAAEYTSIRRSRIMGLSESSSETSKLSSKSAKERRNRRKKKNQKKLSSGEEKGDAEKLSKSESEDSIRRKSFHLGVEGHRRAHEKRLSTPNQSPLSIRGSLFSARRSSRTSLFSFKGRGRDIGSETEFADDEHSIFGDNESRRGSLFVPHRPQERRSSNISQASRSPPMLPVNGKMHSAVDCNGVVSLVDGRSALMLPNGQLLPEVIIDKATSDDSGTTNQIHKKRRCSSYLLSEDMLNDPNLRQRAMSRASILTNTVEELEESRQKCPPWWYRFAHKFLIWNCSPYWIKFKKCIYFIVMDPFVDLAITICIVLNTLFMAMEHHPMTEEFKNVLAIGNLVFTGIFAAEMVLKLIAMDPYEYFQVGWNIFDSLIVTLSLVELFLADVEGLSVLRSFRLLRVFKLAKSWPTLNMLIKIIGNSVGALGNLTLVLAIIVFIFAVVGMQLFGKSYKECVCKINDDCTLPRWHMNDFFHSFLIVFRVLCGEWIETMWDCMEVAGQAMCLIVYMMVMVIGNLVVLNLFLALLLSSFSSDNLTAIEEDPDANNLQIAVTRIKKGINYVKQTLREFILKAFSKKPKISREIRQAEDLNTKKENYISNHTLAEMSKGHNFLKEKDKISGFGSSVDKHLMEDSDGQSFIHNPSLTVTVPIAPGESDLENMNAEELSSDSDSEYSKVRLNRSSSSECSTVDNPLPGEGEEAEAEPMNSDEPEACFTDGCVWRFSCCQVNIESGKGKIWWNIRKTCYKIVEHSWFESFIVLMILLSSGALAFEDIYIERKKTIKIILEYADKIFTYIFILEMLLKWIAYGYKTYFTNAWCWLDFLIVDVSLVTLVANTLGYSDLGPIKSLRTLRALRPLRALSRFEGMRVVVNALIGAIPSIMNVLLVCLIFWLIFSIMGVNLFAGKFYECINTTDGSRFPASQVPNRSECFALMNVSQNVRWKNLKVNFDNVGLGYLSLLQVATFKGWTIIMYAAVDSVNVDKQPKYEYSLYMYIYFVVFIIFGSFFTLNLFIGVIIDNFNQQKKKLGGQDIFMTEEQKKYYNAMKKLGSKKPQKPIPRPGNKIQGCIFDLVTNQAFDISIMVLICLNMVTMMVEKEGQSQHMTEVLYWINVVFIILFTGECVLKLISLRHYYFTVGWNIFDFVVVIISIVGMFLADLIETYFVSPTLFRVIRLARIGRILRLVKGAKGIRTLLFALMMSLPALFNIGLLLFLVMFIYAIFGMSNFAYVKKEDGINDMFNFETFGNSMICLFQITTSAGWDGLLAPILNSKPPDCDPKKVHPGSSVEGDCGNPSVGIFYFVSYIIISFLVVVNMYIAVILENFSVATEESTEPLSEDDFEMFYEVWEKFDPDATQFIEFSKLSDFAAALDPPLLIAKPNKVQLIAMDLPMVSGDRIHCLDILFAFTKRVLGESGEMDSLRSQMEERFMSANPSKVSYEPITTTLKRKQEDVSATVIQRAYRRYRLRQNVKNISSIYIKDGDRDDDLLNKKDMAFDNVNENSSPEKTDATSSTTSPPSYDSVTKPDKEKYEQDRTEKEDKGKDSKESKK
method: Automated whole-cell voltage-clamp (ScreenPatch 384P), Nav 1.7 sodium current, Protocol 2
Format: cell-based
run parameters: read-out: Nav1.7 IC50
property label: pIC50
Give bare numbers, as −log10 of the molar value.

CCCOc1ccc(-c2cncc(C(=O)N/N=C/c3cc(OC)cc(OC)c3)n2)cc1 : 6.68

Please report pIC50 for every entry that follows.
1. CCOc1ccc(-c2cncc(C(=O)N/N=C/c3cccc(OC)c3)n2)c(Cl)c1
2. CCOc1ccc(-c2cncc(C(=O)N/N=C/c3cc(OC)ccc3Cl)n2)cc1
3. CCCc1ccc(-c2cncc(C(=O)N/N=C/c3cc(OC)cc(OC)c3)n2)cc1

output:
6.27
6.62
6.00

For each listed entry, give its pIC50.
1. CCOc1ccc(-c2cncc(C(=O)N/N=C/c3cc(OC)cc(OC)c3)n2)cc1Cl
2. CCCCOc1ccc(-c2cncc(C(=O)N/N=C/c3cc(OC)cc(OC)c3)n2)cc1
3. CCOc1ccc(-c2cncc(C(=O)N/N=C/c3cc(OC)cc(OC)c3OC)n2)cc1
4. CCOc1ccc(-c2cncc(C(=O)N/N=C/c3cccc(OC)c3OC)n2)cc1

output:
6.13
6.87
6.72
6.63

input: Give the reported pIC50 for COc1cc(/C=N/NC(=O)c2cncc(-c3ccc(OC(C)(C)C)cc3)n2)cc(OC)c1 (system: human sodium channel Nav 1.7 (Homo sapiens (Human), UniProt Q15858)).
output: 6.58

* * *

tested target: human sodium channel Nav 1.8 (Homo sapiens (Human), UniProt Q9Y5Y9)
Sequence (Q9Y5Y9 whole entry): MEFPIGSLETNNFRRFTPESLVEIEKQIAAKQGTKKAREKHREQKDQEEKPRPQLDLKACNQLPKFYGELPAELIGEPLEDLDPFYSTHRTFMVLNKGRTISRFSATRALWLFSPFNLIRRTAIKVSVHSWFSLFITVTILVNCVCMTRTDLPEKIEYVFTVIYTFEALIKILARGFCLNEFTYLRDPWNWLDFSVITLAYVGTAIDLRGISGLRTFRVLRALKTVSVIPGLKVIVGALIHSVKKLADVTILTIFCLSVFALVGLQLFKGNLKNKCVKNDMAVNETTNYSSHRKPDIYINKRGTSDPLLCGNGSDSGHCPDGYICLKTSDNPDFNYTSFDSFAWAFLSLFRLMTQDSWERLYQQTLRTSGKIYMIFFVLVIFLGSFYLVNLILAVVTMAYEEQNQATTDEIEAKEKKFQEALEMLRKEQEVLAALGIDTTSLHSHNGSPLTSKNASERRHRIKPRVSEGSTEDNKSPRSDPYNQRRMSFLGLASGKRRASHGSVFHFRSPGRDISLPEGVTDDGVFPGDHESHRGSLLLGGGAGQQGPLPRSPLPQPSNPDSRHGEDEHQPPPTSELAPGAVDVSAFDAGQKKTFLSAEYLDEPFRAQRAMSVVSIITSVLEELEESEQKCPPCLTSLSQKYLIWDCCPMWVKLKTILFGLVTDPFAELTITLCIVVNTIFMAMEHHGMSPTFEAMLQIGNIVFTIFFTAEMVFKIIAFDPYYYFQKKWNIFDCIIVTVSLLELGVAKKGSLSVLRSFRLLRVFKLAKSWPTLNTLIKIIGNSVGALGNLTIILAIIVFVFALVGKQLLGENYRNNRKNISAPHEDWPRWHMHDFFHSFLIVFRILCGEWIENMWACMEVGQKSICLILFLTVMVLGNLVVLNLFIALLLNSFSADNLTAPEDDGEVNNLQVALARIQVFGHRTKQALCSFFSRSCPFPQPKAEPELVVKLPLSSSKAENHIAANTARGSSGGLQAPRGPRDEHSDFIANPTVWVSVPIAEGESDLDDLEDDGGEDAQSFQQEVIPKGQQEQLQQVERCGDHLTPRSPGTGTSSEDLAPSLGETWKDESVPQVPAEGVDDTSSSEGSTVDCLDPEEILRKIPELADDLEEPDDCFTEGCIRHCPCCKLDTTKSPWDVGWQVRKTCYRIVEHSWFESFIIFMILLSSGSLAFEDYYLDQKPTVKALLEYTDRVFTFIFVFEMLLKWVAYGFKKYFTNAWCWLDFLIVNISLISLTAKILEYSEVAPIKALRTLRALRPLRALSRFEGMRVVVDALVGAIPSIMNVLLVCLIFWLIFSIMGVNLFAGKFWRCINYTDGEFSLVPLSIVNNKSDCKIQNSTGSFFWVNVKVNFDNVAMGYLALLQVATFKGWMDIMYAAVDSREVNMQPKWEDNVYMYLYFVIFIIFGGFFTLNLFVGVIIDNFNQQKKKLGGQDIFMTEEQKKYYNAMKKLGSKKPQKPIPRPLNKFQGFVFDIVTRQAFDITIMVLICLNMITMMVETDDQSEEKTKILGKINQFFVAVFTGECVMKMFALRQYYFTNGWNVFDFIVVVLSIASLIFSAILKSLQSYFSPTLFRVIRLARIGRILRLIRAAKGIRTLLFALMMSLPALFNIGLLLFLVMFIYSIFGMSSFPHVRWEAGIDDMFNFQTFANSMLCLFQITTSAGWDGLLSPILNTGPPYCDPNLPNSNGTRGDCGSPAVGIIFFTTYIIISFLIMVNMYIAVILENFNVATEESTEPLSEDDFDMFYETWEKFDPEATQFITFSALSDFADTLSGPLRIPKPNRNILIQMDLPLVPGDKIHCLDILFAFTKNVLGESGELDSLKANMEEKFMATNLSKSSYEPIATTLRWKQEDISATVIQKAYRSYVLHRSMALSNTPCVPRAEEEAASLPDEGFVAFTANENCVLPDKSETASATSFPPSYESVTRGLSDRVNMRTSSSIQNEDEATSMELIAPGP
method: Automated whole-cell voltage-clamp (ScreenPatch 384P), Nav 1.8 sodium current, Protocol 2
Format: cell-based
run parameters: read-out: Nav1.8 IC50
Hi there, I'd appreciate the recorded pIC50 for every entry that follows.
Give bare numbers, as −log10 of the molar value.

Parameter requested: pIC50. Apply to each item below.
1. CC(C)Oc1ccc(-c2cncc(C(=O)N/N=C/C3CCCCCC3)n2)cc1
2. COc1ccc(-c2cncc(C(=O)N/N=C/c3ccccc3)n2)cc1
3. CCCCOc1ccc(-c2cncc(C(=O)N/N=C/c3cc(C)cc(C)c3)n2)cc1
4. Cc1cc(C)cc(/C=N/NC(=O)c2cncc(-c3ccc(OC4CCCC4)cc3)n2)c1

output:
[6.64, 6.45, 6.82, 6.93]

* * *

tested target: human sodium channel Nav 1.8 (Homo sapiens (Human))
method: Automated whole-cell voltage-clamp (ScreenPatch 384P), Nav 1.8 sodium current, Protocol 2
Type: cell-based
run parameters: read-out: Nav1.8 IC50
property label: IC50

Solved cases (5 shown):
COc1cc(/C=N/NC(=O)c2cncc(-c3ccc(F)cc3)n2)cc(OC)c1 : > 1000 nM
CCOc1ccc(-c2cnc(OC)c(C(=O)N/N=C/c3cc(OC)cc(OC)c3)n2)cc1 : > 300 nM
COc1ccc(-c2cncc(C(=O)N/N=C/c3ccc(Cl)cc3)n2)cc1 : 614 nM
CCCN1CCN(c2cncc(C(=O)N/N=C/c3cc(OC)cc(OC)c3)n2)CC1 : > 1000 nM
CCOc1ccc(-c2cncc(C(=O)N/N=C/c3cc(F)cc(OC)c3)n2)c(OC)c1 : 33.7 nM

Please give IC50 for each item listed below.
1. COc1cc(/C=N/NC(=O)c2cncc(-c3ccccc3N3CCOCC3)n2)cc(OC)c1
2. COc1ccc(-c2cncc(C(=O)N/N=C/c3ccc(N(C)C)cc3)n2)cc1
3. COc1cc(/C=N/NC(=O)c2nccnc2C)cc(OC)c1

output:
["> 1000 nM", "1000 nM", "> 1000 nM"]

* * *

tested target: human sodium channel Nav 1.7 (Homo sapiens (Human))
method: Automated whole-cell voltage-clamp (ScreenPatch 384P), Nav 1.7 sodium current, Protocol 1
Format: cell-based
run parameters: Protocol 1 (holding voltage -90 mV, 0.1 Hz); CHO cells expressing human Nav 1.7; room temperature; read-out: Nav1.7 IC50
Experimental: Biological assays were performed on Chinese hamster ovary (CHO) cells expressing the human sodium channels Nav 1.8 and Nav 1.7 stably. […] Protocols were repeated at a frequency of 0.1 Hz (Protocol 1) or 0.05 Hz (Protocol 2) and current amplitude was quantified over the TP1A phase log. The variation in the peak amplitude of the current was evaluated according to the Formula described below, after exposure of the cells expressing the channels, at each concentration of the different compounds: […]
property label: IC50

CCOc1ccc(-c2cncc(C(=O)N/N=C/c3cncc(OC)c3)n2)cc1 : > 10 µM
CCOc1ccc(-c2cncc(C(=O)N/N=C/c3ccncc3)n2)cc1 : > 10 µM

Switching to the query record.
input: For the compound shown here, CCOc1ccc(-c2cncc(C(=O)N/N=C/c3ccccn3)n2)cc1 , give the reported IC50.
output: > 10 µM

* * *

Please go through the items and note down their pIC50.
tested target: human sodium channel Nav 1.8 (Homo sapiens (Human), UniProt Q9Y5Y9)
method: Automated whole-cell voltage-clamp (ScreenPatch 384P), Nav 1.8 sodium current, Protocol 2
Format: cell-based
run parameters: read-out: Nav1.8 IC50
pIC50: −log10 of the molar value.

The cases that follow already have their pIC50 on record.
COc1cc(/C=N/NC(=O)c2cncc(-c3ccccc3Cl)n2)cc(OC)c1 [Compound 95] : < 6.00
COc1cc(/C=N/NC(=O)c2cncc(-c3ccc(OC)cc3OCCN(C)C)n2)cc(OC)c1 [Compound 160] : < 6.00
COc1cc(/C=N/NC(=O)c2cnc(Cl)cn2)cc(OC)c1 [Compound 164] : < 6.00

// next entry
input: # pIC50 lookup, item CCOc1ccc(-c2cnc(Oc3ccccc3)c(C(=O)N/N=C/c3cc(OC)cc(OC)c3)n2)cc1 [Compound 146]
output: < 6.52

* * *

tested target: human sodium channel Nav 1.8 (Homo sapiens (Human))
method: Automated whole-cell voltage-clamp (ScreenPatch 384P), Nav 1.8 sodium current, Protocol 2
Format: cell-based
run parameters: read-out: Nav1.8 IC50
Field: IC50. Provide a value for each of the molecules that follow.

Example entries and their recorded answers appear below.
COc1cc(/C=N/NC(=O)c2cncc(-c3ccc(OC)cc3Cl)n2)cc(OC)c1 : > 1000 nM
COc1cc(/C=N/NC(=O)c2cncc(Cl)n2)cc(OC)c1 : > 1000 nM
COc1ccc(-c2cncc(C(=O)N/N=C/c3ccccc3C(C)(C)C)n2)cc1 : > 1000 nM

In the following, a different molecule is considered.
input: // IC50 lookup, key: CCOc1ccc(-c2cnc(CC)c(C(=O)N/N=C/c3cc(OC)cc(OC)c3)n2)cc1
output: > 300 nM

* * *

Would you kindly list IC50 for each of these compounds?
tested target: UniProt Q15858
method: Automated whole-cell voltage-clamp (ScreenPatch 384P), Nav 1.7 sodium current, Protocol 2
Assay type: cell-based
run parameters: read-out: Nav1.7 IC50
Answers are plain numbers, in nM.

Previously resolved entries follow.
CC1=C(/C=N/NC(=O)c2cncc(-c3ccc(OC(C)C)cc3)n2)CCCCC1 : 107
COc1ccc(-c2cncc(C(=O)N/N=C/c3cccc(C(C)(C)C)c3)n2)cc1 : 1850
COc1cc(/C=N/NC(=O)c2cncc(-c3ccc(OC)cc3OC(F)(F)F)n2)cc(OC)c1 : 2350

With those in mind, consider the next compound.
input: Using the record for COc1ccc(-c2cncc(C(=O)N/N=C/c3cccc(C(F)(F)F)c3)n2)cc1 , report its IC50.
output: 5480

* * *

tested target: human sodium channel Nav 1.8 (Homo sapiens (Human))
method: Automated whole-cell voltage-clamp (ScreenPatch 384P), Nav 1.8 sodium current, Protocol 2
Assay type: cell-based
run parameters: read-out: Nav1.8 IC50
property label: pIC50
One number for each entry, as −log10 of the molar value.

COc1ccc(-c2cncc(C(=O)N/N=C/c3cccc(F)c3)n2)cc1 [Compound 53] : 6.36
COc1ccc(-c2cncc(C(=O)N/N=C/C3=C(C)CCCCC3)n2)cc1 [Compound 200] : 6.89

Moving on to the next compound.
input: pIC50 for COc1ccc(-c2cncc(C(=O)N/N=C/C3CCCCC3)n2)cc1 [Compound 173] ?
output: 6.20

* * *

tested target: human sodium channel Nav 1.8 (Homo sapiens (Human))
method: Automated whole-cell voltage-clamp (ScreenPatch 384P), Nav 1.8 sodium current, Protocol 2
Format: cell-based
run parameters: read-out: Nav1.8 IC50
pIC50: −log10 of the molar value.
property label: pIC50

Use these answered entries as a reference point.
COc1cc(/C=N/NC(=O)c2cncc(N3CCCCC3)n2)cc(OC)c1 : < 6.00
COc1cc(/C=N/NC(=O)c2cncc(-c3ccncc3)n2)cc(OC)c1 : < 6.00

Hi! Can you tell me pIC50 for each of these molecules?
1. CCOc1ccc(-c2cnc(-c3ccccc3)c(C(=O)N/N=C/c3cc(OC)cc(OC)c3)n2)cc1
2. COc1cc(/C=N/NC(=O)c2cncc(-c3ccc(Cl)cc3)n2)cc(OC)c1
3. COc1ccc(-c2cncc(C(=O)N/N=C/c3ccnc(C(N)=O)c3)n2)cc1
4. CCOc1ccc(-c2nc(C(=O)N/N=C/c3cc(OC)cc(OC)c3)cnc2OCC)cc1
5. COc1cc(/C=N/NC(=O)c2cncc(-c3cccc(Cl)c3)n2)cc(OC)c1

output:
1: < 6.52; 2: < 6.00; 3: < 6.00; 4: < 6.00; 5: < 6.00

Please supply pIC50 for each of the following items, keeping them in order.
1. COc1cc(/C=N/NC(=O)c2cncc(-c3ccc(OCCN(C)C)cc3)n2)cc(OC)c1
2. COc1cc(/C=N/NC(=O)c2cnc(C)cn2)cc(OC)c1
3. COc1ccc(-c2cncc(C(=O)N/N=C/c3ccc(OC)c(OC)c3OC)n2)cc1
4. CCOc1ccc(-c2cncc(C(=O)N/N=C/c3ccccc3)n2)cc1
5. COc1cc(/C=N/NC(=O)c2cncc(-c3ccc(OC)cc3OC(C)C)n2)cc(OC)c1
6. COc1cc(/C=N/NC(=O)c2cncc(-c3cccnc3)n2)cc(OC)c1

output:
< 6.00
< 6.00
< 6.00
< 6.00
< 6.00
< 6.00

Provide each entry's pIC50 from the list below.
1. COc1cc(/C=N/NC(=O)c2cncc(-c3ccccc3)n2)cc(OC)c1
2. COc1ccc(-c2cncc(C(=O)N/N=C/c3ccc(C)cc3)n2)cc1
3. CC(C)Oc1ccc(-c2cncc(C(=O)N/N=C/C3CCCCC3)n2)cc1
4. CCOc1ccc(-c2cncc(C(=O)N/N=C/c3cc(OC)cc4ocnc34)n2)cc1

output:
[6.40, 6.10, 6.44, "< 6.52"]

Below is a list of molecules. For each, state its recorded pIC50.
1. COc1cc(/C=N/NC(=O)c2cncc(-c3ccc(OCC(C)C)cc3)n2)cc(OC)c1
2. CCOc1ccc(-c2cncc(C(=O)N/N=C/c3cc(OC)ccc3F)n2)cc1

output:
1: 7.50; 2: 7.88
